Hey, just so you know, these numbers are from patent US9133182B2.

Catalogue of IC50 values
Experimental target: androgen receptor (Rattus norvegicus (Rat), UniProt P15207)
Sequence (P15207 651-902): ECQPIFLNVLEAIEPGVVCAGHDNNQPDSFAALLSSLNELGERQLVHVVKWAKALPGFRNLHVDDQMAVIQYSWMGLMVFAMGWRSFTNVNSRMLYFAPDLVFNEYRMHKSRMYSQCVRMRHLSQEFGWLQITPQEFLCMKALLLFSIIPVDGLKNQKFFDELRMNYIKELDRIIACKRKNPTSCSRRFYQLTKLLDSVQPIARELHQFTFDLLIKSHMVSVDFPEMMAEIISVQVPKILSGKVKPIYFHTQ
Experiment description: androgen receptor binding assay (fluorescence polarization, Invitrogen)
Condition description: AR-Fluormone complex, 4 h at room temperature; Table 1
Express your answer in nM, writing the number without its unit.

// worked examples, IC50 included
{"Line notation": "C[C@@H]1OC(=O)N(c2ccc(C#N)c(Cl)c2)[C@H]1[C@H](O)C(F)(F)F", "IC50 [nM]": 15}
{"Line notation": "N#Cc1ccc(N2C(=O)CC[C@@H]2[C@H](O)C(F)(F)F)cc1C(F)(F)F", "IC50 [nM]": 14}
{"Line notation": "Cc1c(N2C(=O)O[C@H](C)[C@@H]2[C@H](O)C(F)(F)F)ccc(C#N)c1Cl", "IC50 [nM]": 200}

Please give the measured IC50 for this compound: CN1C[C@H]([C@H](O)C(F)(F)F)N(c2ccc(C#N)c(C(F)(F)F)c2)C1=O 10

Please give the measured IC50 for this compound: Cc1c(N2C(=O)CC[C@@H]2[C@@H](O)C(F)(F)F)ccc(C#N)c1C(F)(F)F 120

Please give the measured IC50 for this compound: N#Cc1ccc(N2C(=O)OC[C@H]2[C@H](O)C(F)(F)F)cc1Cl 45

Please give the measured IC50 for this compound: Cc1c(N2C(=O)OC[C@@H]2[C@@H](O)C(F)(F)F)ccc(C#N)c1Cl 933

Please give the measured IC50 for this compound: Cc1c(N2C(=O)O[C@@H](C)[C@@H]2[C@H](O)C(F)(F)F)ccc(C#N)c1C(F)(F)F 33

Please give the measured IC50 for this compound: C[C@@H]1OC(=O)N(c2ccc(C#N)c(Cl)c2)[C@H]1[C@@H](O)C(F)(F)F 210

Please give the measured IC50 for this compound: N#Cc1ccc(N2C(=O)OC[C@@H]2[C@H](O)C(F)(F)F)cc1C(F)(F)F 50

Please give the measured IC50 for this compound: Cc1c(N2C(=O)CC[C@@H]2[C@H](O)C(F)(F)F)ccc(C#N)c1C(F)(F)F 11

Please give the measured IC50 for this compound: Cc1c(N2C(=O)OC[C@@H]2[C@H](O)C(F)(F)F)ccc(C#N)c1Cl 25

Please give the measured IC50 for this compound: Cc1c(N2C(=O)OC[C@@H]2[C@H](O)C(F)(F)F)ccc(C#N)c1C(F)(F)F 13

Please give the measured IC50 for this compound: N#Cc1ccc(N2C(=O)CC[C@@H]2[C@@H](O)C(F)(F)F)cc1C(F)(F)F 100

Please give the measured IC50 for this compound: Cc1c(N2C(=O)O[C@@H](C)[C@@H]2[C@@H](O)C(F)(F)F)ccc(C#N)c1Cl 700

Please give the measured IC50 for this compound: O=C1CC[C@H]([C@H](O)C(F)(F)F)N1c1ccc2nnsc2c1 530

Please give the measured IC50 for this compound: Cc1c(N2C(=O)O[C@@H](C)[C@@H]2[C@H](O)C(F)(F)F)ccc(C#N)c1Cl 13

====

Experimental target: UniProtKB P15207
Experiment description: androgen receptor binding assay (fluorescence polarization, Invitrogen)
Condition description: AR-Fluormone complex, 4 h at room temperature; Table 2
pIC50: −log10 of the molar value.
Assign 1 (yes) whenever pIC50 does not fall below 7; assign 0 (no) whenever it does.

{"Molecule": "C[C@H]1OC(=O)N(c2ccc(C#N)c(C(F)(F)F)c2)[C@H]1[C@H](O)C(F)(F)F", "Category": "0 (no)"}

Would you kindly look at the next entry?
Test whether the molecule O=C1CC[C@H]([C@@H](O)C(F)(F)F)N1c1ccc(Cl)c(Cl)c1 records pIC50 of 7 or higher. 0 (no)
